The measured values listed here are drawn from the supplement of paper PMC10567573.

Listing of recorded protein stability index by entry.
B1: LARP4 (parent)
chain: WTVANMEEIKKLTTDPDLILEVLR

# Variants of: B1
# assay: protein stability index of a GFP-peptide fusion (GPS, HEK-293T) (PSI 1-6); higher = more stable;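 further: lentivirally expressed fusions sorted by FACS into six bins by GFP to DsRed ratio, PSI derived from sequencing read proportions per bin multiplied by bin number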
# conditions.used: c terminus: a fixed tail appended
reported.endpoint: protein stability index

mutation.list	endpoint.result
L18S	3.05
L23Q	2.63
V22E	3.59
E7N	2.56
L20E	3.68
E8P	1.82
W1F	2.74
P16W	1.43
W1D	3.04
A4C	1.92
E7R	1.44
L20I	2.1
K11V	2.29
N5Q	2.39
L20F	2.15
R24S	2.27
K10H	1.84
T13E	2.24
W1R	2.45
I19V	1.59
L12A	2.17
K11Q	2.58
P16T	1.89
D15Q	2.1
L18K	2.8
W1N	2.49
T14G	2.01
L23P	2.89
L18Q	3.13
K10E	2.51
